# Tested on: L132
# TEST NAME: Cytotoxic activity against human L132 cell line was measured after 72 hr using MTT assay
# Type: functional
# TEST PARAMETERS: L132, 72 h, read-out: ED50 (the source's name)
Overview of reported EC50 across a group of compounds:

Task: Could you tell me which EC50 is on file for C=C(C)[C@@H]1CC[C@]2(C(=O)O)CC[C@]3(C)C(CCC4[C@@]5(C)CC[C@H](OC(=O)CC)C(C)(C)C5CC[C@]43C)C12 (some centres not stated) ?
Result: > 10 mg/L

---

# System: CCRF-CEM
# TEST NAME: Cytotoxic activity against human CEM.CM3 cell line was measured after 72 hr using MTT assay
# Type: functional
# TEST PARAMETERS: Homo sapiens, CCRF-CEM, 72 h; read-out: ED50 (the source's name)
Sorting guide: entries reporting EC50 beneath 3 µg/mL go in the Y pile, the rest go in the N pile.

Would you please look over these solved cases?
{"MOLECULE": "CC(=O)O[C@H]1C(Br)C[C@@]2(C)C(CC[C@]3(C)C2CCC2C4[C@H](C(C)(Br)CBr)CC[C@]4(C(=O)O)CC[C@]23C)C1(C)C (stereo not given in full)", "TARGET OR TEST SYSTEM": "CCRF-CEM", "CLASS NAME": "Y"}
{"MOLECULE": "CC(C)[C@@H]1CC[C@]2(C(=O)O)CC[C@]3(C)C(CCC4[C@@]5(C)CC/C(=N\\Nc6ccccc6)C(C)(C)C5CC[C@]43C)C12 (stereo not given in full)", "TARGET OR TEST SYSTEM": "CCRF-CEM", "CLASS NAME": "Y"}

Task: Does the reported EC50 of COC(=O)COC(=O)[C@]12CC[C@@H](C(C)C)C1C1CCC3[C@@]4(C)CC[C@H](O)C(C)(C)C4CC[C@@]3(C)[C@]1(C)CC2 (stereo not given in full) stay below 3 µg/mL?
Result: Y

Task: Then `C=C(C)[C@@H]1CC[C@]2(C(=O)O)CC[C@]3(C)[C@H](CC[C@@H]4[C@@]5(C)CCC(=O)C(C)(C)[C@@H]5CC[C@]43C)[C@@H]12` ?
Result: N

Task: Then COC(=O)C(C)C(=O)O[C@H]1CC[C@@]2(C)C(CC[C@]3(C)C2CCC2C4[C@H](C(C)C)CC[C@]4(C(=O)O)CC[C@]23C)C1(C)C (stereo not given in full) ?
Result: N
